- System: MDA-MB-435
- assay_text: NCI tumour cell line growth inhibition, 48 h
Calls of active or inactive are those of the source. Rule as the data show it: active = GI50 up to about 1.1 µM and inactive = higher. Residues, ends and D or L forms follow the SMILES beside them. *: point of attachment. Pentanoyl = CCCCC(=O)*; Boc = CC(C)(C)OC(=O)*
I'd be grateful if you could share measured GI50 for these entries.

[[record]]
compound = "COc1ccc(C[C@@H]2OC3(C=CC(=O)C=C3)O[C@H]2Cc2ccc(OC)cc2)cc1"
val = "1.53 µM (inactive)"

[[record]]
compound = "O=C(N=C1N(c2ccccc2)C(=O)C(=O)N1c1ccccc1)c1ccccc1"
val = "22.9 µM (inactive)"

[[record]]
compound = "COC(=O)/C=C/[C@@H]1[C@H](C)N1S(=O)(=O)c1ccc(C)cc1 (some centres undefined)"
val = "> 100 µM (inactive)"

[[record]]
compound = "C/C(=N\\Nc1ccc([N+](=O)[O-])cc1[N+](=O)[O-])c1sc(-n2nc(-c3ccccc3)cc2-c2ccccc2)nc1C"
val = "33 µM (inactive)"

[[record]]
compound = "c1ccc(-c2cc(-c3ccncc3)cc(-c3ccncc3)n2)cc1"
val = "> 100 µM (inactive)"


Quick one: give me GI50 for each item below, same order please.
1. CC(=O)Nc1n[n+]([O-])c2cc(C)ccc2[n+]1[O-]
2. COc1ccc2c(c1)CC[C@@H]1C2CC[C@]2(C)OC(=O)CCC12 (some centres undefined)

Result ::
1: 4.72 µM (inactive); 2: 26.5 µM (inactive)

Quick one: give me GI50 for each item below, same order please.
1. COC(=O)c1ccccc1C1=C([N+](=O)[O-])C(c2ccccc2)C(C#N)=C(N)O1 (centres undefined)
2. CCCCC(=O)Oc1ccc(CC(NC(=O)OC(C)(C)C)C(=O)NC(C)C(=O)NC(Cc2ccccc2)C(=O)NCC(N)=O)cc1 (centres undefined) (Boc-Y(Pentanoyl)AFG-NH2; configuration not given here)

Result ::
["72.8 µM (inactive)", "20 µM (inactive)"]

----------
- Test system: LOX IMVI
- assay_text: NCI tumour cell line growth inhibition, 48 h
Activity calls are given as the source filed them. Rule as the data show it: active = GI50 up to about 1.1 µM and inactive = higher.
The reply should be one of these categories: yes (1) = active, no (0) = inactive

[[record]]
molecule = "COC(=O)C1(O)CC(=O)CCC1c1ccc(OC)cc1 (configuration not stated)"
discrete_label = "no (0)"

[[record]]
molecule = "COc1cc(C)c(C2NC(=O)c3ccccc3N2)cc1C (configuration not stated)"
discrete_label = "yes (1)"

[[record]]
molecule = "Cc1c(Cl)c(C)c(Cl)c(O)c1Cl"
discrete_label = "no (0)"


Query :: // outcome(item) with item = "Cn1nc(-c2ccccc2)c(C(=O)/C=C/c2ccccc2)c(N2CCOCC2)c1=O"
Result :: no (0)

Query :: // outcome(item) with item = "CCN(C(=O)N[C@H](C(=O)N[C@@H](CSC)C(=O)N[C@@H](C)C(=O)OC)C(C)C)c1ccccc1"
Result :: no (0)

Query :: // outcome(item) with item = "CC1=C(C(=O)Nc2c(C)cccc2C)C(c2ccccc2Cl)C(C(=O)Nc2c(C)cccc2C)=C(C)N1"
Result :: no (0)

Query :: // outcome(item) with item = "O=CNc1cccc2c3c([nH]c12)CCCCCC3"
Result :: no (0)

----------
- Tested on: OVCAR-4
- assay_text: NCI tumour cell line growth inhibition, 48 h
The source made the active and inactive calls. Cut-off read from the data, not from the text of the source: active = GI50 up to about 1.1 µM and inactive = higher.
The reply should be one of these categories: y for active, n for inactive

Example cases with answers are listed next.
[[record]]
compound = "CC(C)(C)OCC1NC(=O)[C@@H]2Cc3c([nH]c4ccccc34)C(c3ccccc3)N2C1=O (some centres undefined)"
discrete_label = "n"

[[record]]
compound = "Cc1ccc(C(=O)Cc2nc3ncccc3[nH]c2=O)cc1"
discrete_label = "n"

[[record]]
compound = "C[C@]12CC[C@@H]3c4cc(C=O)c(OCc5ccccc5)cc4CC[C@H]3[C@@H]1CCC2OCc1ccccc1 (some centres undefined)"
discrete_label = "n"


Please look at the following compound next.
Query :: // outcome(item) with item = "Cc1ccc2c(c1)[nH]c(=S)n2/C=C1\C(=O)Oc2ccccc2C1=O"
Result :: n
